Experiment: [3H]heparin binding of synthetic CTGF polypeptides on nitrocellulose dot-blot
Details: 37.5 nmol polypeptide on nitrocellulose, 10 μCi/ml [3H]heparin, room temperature
ENDPOINT LABEL: [3H]Heparin bound (mean ± S.D.) (cpm/μg)
Answers are plain numbers, in cpm/μg.

A selection of reference data follows.
TSMKTYRAKFCGV (Ac-TSMKTYRAKFCGV-NH2) [CTGF-(274-286)]    1108
EENIKKGKK [CTGF-(247-255)]    10
GVCTDGR (Ac-GVCTDGR-NH2) [CTGF-(285-291)]    7

I would be grateful if you could provide [3H]Heparin bound (mean ± S.D.) for each of the following entries.
1. EENIKKGKKCIRTP [CTGF-(247-260)]
2. TPHRTTTLPVEFK (Ac-TPHRTTTLPVEFK-NH2) [CTGF-(294-306)]
3. HYNCPGDNDIFESLYYRKMYGDMA (Ac-HYNCPGDNDIFESLYYRKMYGDMA-OH) [CTGF-(326-349)]
4. MFIKTCASHYN (Ac-MFIKTCASHYN-NH2) [Ser^325 CTGF-(318-328)]
5. FKCPDGEVMKKNMMFIKT (Ac-FKCPDGEVMKKNMMFIKT-NH2) [CTGF-(305-322)]
6. GVCTDGRS (Ac-GVCTDGRS-NH2) [Ser^292 CTGF-(285-292)]
7. TSMKTYRAKF (Ac-TSMKTYRAKF-NH2) [CTGF-(274-283)]

Ans:
836
11
10
601
237
8
388
